# System: VDR homodimer (NR concentration 270 nM)
# test-protocol: PBM binding z-score (relative to random genomic background probes); higher = stronger binding; sequences stand for … in GC…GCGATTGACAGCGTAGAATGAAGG
Label True when PBM binding z-score >= 1; otherwise False.

Task: Quick check, PBM binding z-score >= 1? GGAACGAGGGCAGGTTGATAGCAGAGTTTGATGG
Output: True

Task: Cool, now CTCGAACGGTCGTGCTCAGGTGAGTATACCAAAC
Output: False

Task: What would you report for CCTCGGAGGACAAGAGGAGGTCAGAGCTGCCAGA ?
Output: False

Task: Item: TCTAGTTGGTCAAATGTCACACACTCGAAATGCG
Output: False

Task: Same thing, different sequence: ATCTCTAGGTAAAAGGTCAGTGAATCCCGAGGAT
Output: False

Task: Same read-out for TCTTGTAGACCAAGCAGGTTAAGAAAGCCTGAGT ?
Output: False

Task: Proceed to AGTCAAAGTTCACTAGGTAACGTCAGATTCAGCT
Output: True

Task: Field entry: TAACCAAGGTGAAAGGTCGTTGATGCACGCCTTG
Output: True

Task: Moving on to AATACAGGGTCACTAGGCTAGAGTAGGTACGAAT
Output: True

Task: Cool, now GCTGCTAGGTCAGGTTGGTCAGTTAACGGGTACG
Output: False

Task: And for CCTTACGGGTCAAGGTTATGGCACGGGTGGTACG ?
Output: True

Task: Also, TCTTGTAGATCAAGCAGGTTACGAAAGCCTGAGT please.
Output: False

----------
# System: LXRb homodimer (NR concentration 270 nM)
# test-protocol: PBM binding z-score (relative to random genomic background probes); higher = stronger binding; sequences stand for … in GC…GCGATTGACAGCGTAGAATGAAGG
Consider the following sequences; for each one, report its PBM binding z-score.
Give the figure by itself; no unit, no explanation.

Task: If you can, please state the reported PBM binding z-score value of ATCTCTAGGTAAAGTTCAGTAAAAGATCGATAGA .
Output: 0.992

Task: Further, for GGAACGAGGGCATTCGAGCTGATAGCATGGCGAT ?
Output: -0.953

Task: TCTATTAGTTGAATGGCAACCGACGAGTCCGTTT , same question.
Output: 0.477

Task: // repeat for GAAACGAGGGCAAAGTTGATAGCATCTGTCGACG and report
Output: -0.45

----------
Exercise: for every item that follows, state its recorded PBM binding z-score.
# System: RARa homodimer (NR concentration 270 nM)
# test-protocol: PBM binding z-score (relative to random genomic background probes); higher = stronger binding; sequences stand for … in GC…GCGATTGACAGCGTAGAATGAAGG
Just the number, please, no unit after it.

Task: Dear colleague, I am looking for the recorded PBM binding z-score of the following sequence: CCTAGCAGGCCAATCTGGGTCACTCAGGGCTTGA
Output: -0.57

Task: Similarly, ACAGACAGGTGATGACGGTAACTCAGGCTATCAT ?
Output: 0.273

Task: Try the sequence CTAGACAGGTGAAAGGTAACTCAGTCTGGTACGC
Output: -0.0814

Task: Entry to check: GATACAGGGTCAGGGCCAGAGTACGCGTATTGAT
Output: 0.471

Task: Input AGTCAAAGTTCATCGAGGTAACGTAAGATATGCT
Output: 0.864

Task: Here is the next sequence: CTCGAAAGGTCGGTTGTGGTGAGTATACGGATAA
Output: 1.01

Task: Another sequence to look at: GCATATAGGTAATACAAGGTGCAAGTCCGATTGT
Output: 0.49

Task: Another sequence to check: AATCAAAGTTCAGGACGAGGTAACGTAAAGCACG
Output: 1.39

Task: Now the sequence ATCTCTAGGTAAAGTGCAGTGAAAGATCGATAGA
Output: 0.333

Task: // same read-out, input: CGTCCAAGGTCAATGCTAGGTCAGTTAAAGCATT
Output: 1.02

Task: ACCTCTAGGTAAAAGTTCAGTGAATCCCGAGGAT ?
Output: 0.0645

Task: What would you report for TCTGCTAGGTCAGTTGGTCAGCTCACGAGCTGCC ?
Output: -1.19

Task: Entry to check: CCTAGTTGGTCAAGATCACACACGCTATAGGTAC
Output: 1.56

Task: Input TAACCTAGGTCAGATCGGGCCAGTATACGCTATA
Output: -0.0765

Task: Repeat with TCATGTAGATCAAAGGTTAAGAAAGCCGAAGCCT
Output: 0.881

Task: Cool, now TCGAATAGGTTAGGGGCATTCAGAATGGCGTCGA
Output: 0.0673

Task: Repeat with TTTTGTAGATCAGCAGGTTAAGAAAGCTGGCCAA
Output: 0.0423

Task: Here is the next sequence: GCTTACGGGACAAAGGTTATAGCATGAATAGAAT
Output: 0.238

Task: Same question for CGTCCATGGTCAGAGAGGTCAGTGAATGCCGAGT please.
Output: 0.23

Task: // next record CGTCCAAGGTGAATGCTAGGTCAGTGAAAGCATT
Output: -0.245

Task: For TCTATTAGTTGATTCGGGCAACCGAAACAGCGGA then?
Output: 0.742

----------
# System: PPARg:RXRa (NR concentration 180 nM, RXRa partner concentration 90 nM)
# test-protocol: PBM binding z-score (relative to random genomic background probes); higher = stronger binding; sequences stand for … in GC…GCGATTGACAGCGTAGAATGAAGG
observed-property: PBM binding z-score
Please state the value as a number alone, without comment.

Task: API: value(readout=PBM binding z-score, system=PPARg:RXRa (NR concentration 180 nM, RXRa partner concentration 90 nM)) for record TCGAGTAAGTTACCAATGGGGCATTCAGCTTTCT
Output: -0.296

Task: Moving on to the next sequence: CCTTACGGGTCAAGAGGTTATAGCACGACGAGCG
Output: 5.44

Task: Consider next the sequence ACAGACAGGTGAGTGAATGTAACTCAGCTGGACG in the same way.
Output: 0.779

Task: Query TGAGTGAGGTTATAAGATCAGGGAACGTTGCAAA next
Output: 0.711

Task: Further, for CATACAGGTTCAGCTAGGCCAGAGTAGGGACGGC ?
Output: 0.629

Task: Next sequence up: ATATGTAGGTTATCGGGGCATTCAGTTTGCGCAT
Output: 5.76

Task: What would you report for CTACCAAGGTGAACAAGGTCGTTGTTTACTATTC ?
Output: 0.787

Task: Would you mind doing GATACAGGGTCTAGGCCAGAGTACGCGTATTGAT as well?
Output: 0.629

----------
# System: RARg:RXRa (NR concentration 270 nM, RXRa partner concentration 90 nM)
# test-protocol: PBM binding z-score (relative to random genomic background probes); higher = stronger binding; sequences stand for … in GC…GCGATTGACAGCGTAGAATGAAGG
Give PBM binding z-score for every item shown.
Answer with a bare number; do not write a unit.

Task: Item TCAGATAGGTGAAGGTAACTCAGGTACGCAGTCG has what recorded PBM binding z-score?
Output: 0.578

Task: Try this sequence too: CAAACTAGGTCACCGGAATGTCAAAGTCCGCATG
Output: 5.43

Task: // repeat for CGAACTTGGTCATTGACAGGACAGTGAATAGTAA and report
Output: 1.04

Task: Can you handle CGAACTAGGTCAAGGAGAGTGAATCTCCGCACGC next?
Output: 3.91

Task: Request: CCTACTGGACCATCAGGTCATTGATATCAACGTT
Output: 1.67

Task: Same question, CTACCAAGGTGAACACGGTCGTTGATTACTATTC this time
Output: 0.852

Task: Also, ACTTACGGGTCAACGAGGTTATAGCTCGCGTATA please.
Output: 5.67

Task: Same question, GATACAGCGTCAGCTAGAGGCCAGAGTATGGAAA this time
Output: -0.0653

Task: // next record GCATATAGGTAATACATGGTGAAAGTCCGATTGT
Output: 0.00391

Task: # repeat for GCTTACGGGTCAATGGTTATAGCATGAATAGAAT
Output: 4.02

Task: What would you report for GCATATAGGTAATACAAGGTGAAAGTCCGATTGT ?
Output: 0.625

Task: Try this sequence next: CGAACTAGGTCATTGACAGTACAGTGAATAGTAA
Output: 3.89

Task: Repeat with CGTCAAAGTTGAACTAAGGTAACGTAAAGCACGC
Output: 2.06

Task: What do you get for TCTTGTAGAACAACAGGAGGTTAAGAAAGATCGA ?
Output: 0.377

Task: Then ATCTCTAGGTAAAGTTTAGTGAAAGATCGATAGA ?
Output: 0.251

Task: Queued: ATATGTAGGTTACATCCGGGTCCTTCAGGCTATG
Output: 0.862

Task: Now the same for CCTACTCGGCCATCAGGTCATTGATATCAACGTT
Output: 2.43

Task: Continue with CGAACTAGGTCAGAACAGGACAGGGAAGGATGAT
Output: 2.58

Task: AGTCAAAGTTCCTCTAGGTAACGTAAGATATGCT ?
Output: 0.433

Task: Now the same for TCTTGTCGATCAGCAGGTTAAGAAAGCTGGCCAA
Output: -0.108

Task: For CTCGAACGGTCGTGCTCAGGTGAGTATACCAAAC then?
Output: 0.435

Task: Entry to check: CCAGACAGGTGAGAAAGTAACTCAGCCTCGATTA
Output: 0.0483

Task: Next record, please: CCGAGTAGGTTATGGGGCATTTAGGCAACGGTGA
Output: 0.488

Task: Then TCTGCTAGGCCAGTTGGTCAGCTAACGAGCTGCC ?
Output: -0.411

Task: And then CCGACTGGGGCAAGGTTACCATCACGCACAGCCA , what is it?
Output: 1.08

Task: Another sequence to look at: TCTATTAGCTGAAGGGCAACCGACGAGTCCGTTT
Output: 0.404

Task: Then what about the sequence GCAACTGGGGCATCAGCAGGTTACCATAACTTAA ?
Output: 0.74

Task: Follow-up entry: GCGAGTGGGGCAAAGCAGGTTACCATAAGGTTGG
Output: 0.324

Task: Try the sequence CGTCCAAGGTCTGAGAGGTCAGTGAATGCCGAGT
Output: 2.97

Task: TAGACTAGGTCATGCGGGCCAGTATAGTGTCGGC , same question.
Output: 3.38

Task: Quick one: GCTATTAGTTGAAAGCGCAACCGAATGATTCTCG
Output: -0.258

Task: // next record ACTATCAGTTGACTTAGGGCAACCGATACGACGC
Output: 0.641

Task: # iterate: TCTTGTAGATCAAGCAAGTTAAGAAAGCCTGAGT
Output: -0.21

Task: What do you have for GGAACGAGGGCGAAGTTGATAGCATCTGTCGACG ?
Output: 0.0412

Task: Ok, now AGAATGAGGTTATACGTAGCTCAGGGAAGAAAGT
Output: 1.29

Task: Next sequence up: ATCGAAAGGTCGTGAGGTGATTATACAGAAAGGC
Output: 4.47

Task: Another sequence to check: CCTACTGGGCCACGAAAGGACATTGATTCAGTGA
Output: 0.593

Task: Moving on to the next sequence: TAACCTAGGTCATGGGCCAGTATACCACGCGAAC
Output: 5.07

Task: Same thing, different sequence: AATACAGGGTCATCGTAGGCCAGAGTTCGCACAG
Output: 5.67

Task: Same thing, different sequence: CGAACTAGGTCATCCGGGACAGTGAATACATTGA
Output: 3.87

Task: Repeat with TCTAGTAGGTTAGGGGCATTCAGAATGGCGTCGA
Output: 0.656

Task: Follow-up item: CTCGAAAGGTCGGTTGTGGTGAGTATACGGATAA
Output: 2.21

Task: Record: ATATGTAGGTTAAGGTTCATTCAGGTTGGTTCGC
Output: 2.48

Task: Also GCAGACCGGTGAAACGCAGGTAACTCAGGGTGGC ?
Output: -0.367

Task: Okay, and ATCGAAAGGTCGAAGGTGAGTATTCCCACCCGAA ?
Output: 4.36
